target: 5-hydroxytryptamine receptor 1A (Homo sapiens); type: functional, cell-based; also: assay procedure not described here
Sequence (P08908 whole entry): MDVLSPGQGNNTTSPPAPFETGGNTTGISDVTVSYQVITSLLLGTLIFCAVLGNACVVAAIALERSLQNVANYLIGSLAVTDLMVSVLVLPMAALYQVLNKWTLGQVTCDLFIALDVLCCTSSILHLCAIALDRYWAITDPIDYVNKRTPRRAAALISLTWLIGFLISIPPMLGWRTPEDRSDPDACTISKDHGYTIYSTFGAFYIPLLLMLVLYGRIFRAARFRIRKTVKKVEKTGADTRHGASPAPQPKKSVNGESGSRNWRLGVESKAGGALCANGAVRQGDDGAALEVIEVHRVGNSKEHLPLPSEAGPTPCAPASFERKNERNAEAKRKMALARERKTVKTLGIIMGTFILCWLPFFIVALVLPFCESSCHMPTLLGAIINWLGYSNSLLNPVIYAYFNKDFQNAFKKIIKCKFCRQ
Reported AC50 by item:

Here is how some molecules turned out for AC50.
In [3]: df
Out[3]:
                                   molecule  readout_type   result
0  CS(=O)(=O)NC(=O)CCC/C=C\C[C@H]1C(=O)C[C@@H](O)[C@@H]1/C=C/[C@@H](O)COc1ccccc1 [SULPROSTONE]          AC50  > 30 µM
1  CC(NC(C)(C)C)C(=O)c1cccc(Cl)c1 (centres undefined) [BUPROPION]          AC50  > 10 µM
2  CCN1C(=O)NC(c2ccccc2)C1=O (centres undefined) [ETHOTOIN]          AC50  > 30 µM
3  c1cnc2cc3c(cc2n1)[C@@H]1CNC[C@H]3C1 [VARENICLINE]          AC50  > 30 µM
4          NCCCCCC(=O)O [AMINOCAPROIC ACID]          AC50  > 10 µM
5  Oc1cc(Cl)ccc1Oc1ccc(Cl)cc1Cl [TRICLOSAN]          AC50  > 30 µM
6  C[C@]12C=CC(=O)C=C1CC[C@@H]1[C@@H]2[C@@H](O)C[C@@]2(C)[C@H]1CC[C@]2(O)C(=O)CO [PREDNISOLONE]          AC50  > 10 µM
7  CC1=C(C(=O)O)N2C(=O)[C@@H](NC(=O)[C@H](N)C3=CCC=CC3)[C@H]2SC1 [CEPHRADINE]          AC50  > 30 µM

[ask] Quick check: AC50 of C[C@@H](O)[C@H]1C(=O)N2C(C(=O)O)=C(SCCN=CN)C[C@H]12 [IMIPENEM ANHYDROUS] ?
[reply] > 300 µM
